# protocol text: Intrinsic clearance in human liver microsomes assessed per mg protein at 1 uM up to 45 mins by LC/MS analysis
# Format: ADME, Microsome
# measurement context: read-out: CLH
Reported microsomal CLint at 1 µM is given for each of the following molecules.

Study these solved cases before continuing.
- sample smiles: "CCCCC(=O)N(Cc1ccc2c(c1)OCCO2)c1cccc(-c2nnn[nH]2)c1"
  observed: "> 1000 µL/min/mg"
- sample smiles: "CCC(=O)N(Cc1ccc(C(F)(F)F)cc1)c1cc(F)cc(-c2nnn[nH]2)c1"
  observed: "< 10 µL/min/mg"
- sample smiles: "CCC(=O)N(Cc1ccc(S(C)(=O)=O)cc1)c1cc(F)cc(-c2nnn[nH]2)c1"
  observed: "< 10 µL/min/mg"

Form field microsomal CLint at 1 µM, entry CCC(=O)N(Cc1ccc(OC(F)(F)F)cc1)c1cc(F)cc(-c2nnn[nH]2)c1 : < 10 µL/min/mg

microsomal CLint at 1 µM in this record for CCCCC(=O)N(Cc1ccc(OC)cc1)c1cccc(-c2nnn[nH]2)c1 : > 1000 µL/min/mg

###

# study system: Prostaglandin D2 receptor 2 (Homo sapiens, UniProt Q9Y5Y4)
# Sequence (Q9Y5Y4 whole entry): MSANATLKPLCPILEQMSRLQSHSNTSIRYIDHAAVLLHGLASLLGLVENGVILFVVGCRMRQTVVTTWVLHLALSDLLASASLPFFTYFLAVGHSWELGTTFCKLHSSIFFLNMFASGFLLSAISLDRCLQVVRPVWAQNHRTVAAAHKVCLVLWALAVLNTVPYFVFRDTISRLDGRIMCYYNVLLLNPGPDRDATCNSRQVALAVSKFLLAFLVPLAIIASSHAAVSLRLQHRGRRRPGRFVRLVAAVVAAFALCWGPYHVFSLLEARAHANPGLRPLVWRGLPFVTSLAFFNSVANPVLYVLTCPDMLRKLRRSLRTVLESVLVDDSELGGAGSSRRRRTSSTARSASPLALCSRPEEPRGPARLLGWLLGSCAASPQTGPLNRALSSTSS
# protocol text: Displacement of [3HPGD2 from human CRTH2 receptor expressed in CHO cell membrane after 90 mins by scintillation proximity assay
reported metric: Ki (nM)

For orientation, consider the following solved cases.
- sample smiles: "CS(=O)(=O)c1ccc(CN(C(=O)C2CCCC2)c2cc(F)cc(-c3nnn[nH]3)c2)cc1"
  reported metric: "Ki"
  observed: 5.4
- sample smiles: "CCCCC(=O)N(Cc1cccc(OC)c1)c1cccc(-c2nnn[nH]2)c1"
  reported metric: "Ki"
  observed: 44
- sample smiles: "CCC(=O)N(Cc1cccc(OC)c1)c1cccc(-c2nnn[nH]2)c1"
  reported metric: "Ki"
  observed: 360
- sample smiles: "CCCCC(=O)N(Cc1ccc2c(c1)OCCO2)c1cc(-c2nnn[nH]2)ccc1F"
  reported metric: "Ki"
  observed: 3.3

(a) CCC(=O)N(Cc1ccc(OC)cc1)c1cc(F)cc(-c2nnn[nH]2)c1
(b) CC(C)CC(=O)N(Cc1ccc(S(C)(=O)=O)cc1)c1cc(F)cc(-c2nnn[nH]2)c1
(c) CCC(=O)N(Cc1ccc(C(F)(F)F)cc1)c1cccc(-c2nnn[nH]2)c1
(d) CCCCC(=O)N(Cc1ccc2c(c1)OCCO2)c1cc(-c2nnn[nH]2)c(F)cc1F
(e) CCCCC(=O)N(Cc1ccc2ccccc2c1)c1cc(-c2nnn[nH]2)ccc1F
Ask: Hey, quick one: sort these by Ki, largest value first please. List each label, following the requested order.
Reply: c, d, e, a, b
